Hello, the source for this data is patent US20250154149A1, in case you need it.

# protocol.details: Pharmacokinetics in plasma of mice after oral administration
# Type: in vivo
# reported.conditions: female, BALB/c, mouse, oral (gavage, clear solution), single dose 5 mg/kg
reported.metric: AUC(0-t) (ng·h/mL)
Use ng·h/mL as the unit, but write only the number.

Problem: Answer with reported AUC(0-t) of `C=C(F)C(=O)N1CC(n2c(=O)n(-c3ccc(C(F)(F)F)cc3)c3nccnc32)C1`
Solution: 17200

###

# Test system: YAP/TAZ-TEAD transcription complex
# protocol.details: CTGF detection (ELISA method) in NCI-H2052 cells
# Assay type: cell-based, human
# reported.conditions: NCI-H2052 cells (NF2 mutation), 24 hours incubation, CTGF in culture supernatant by ELISA; read-out: EC50 value (CTGF concentration response curve)
reported.metric: pEC50
Lab note: report pEC50 as minus log10 of the concentration in molar units, number only.

Problem: Answer with reported pEC50 of C=C(F)C(=O)N1CC(n2c(=O)n(-c3ccc(C(F)(F)F)cc3)c3nccnc32)C1 [compound represented by Formula I]
Solution: 8.70
